FYI, the data here is from ChEMBL document CHEMBL1961873.

target: G protein-coupled receptor kinase 6 (Homo sapiens); conditions: at 0.1 µM;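 also: mean percent inhibition of GRK6, GSK PKIS screen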
Endpoint: inhibition

molecule=O=C1Nc2ccccc2/C1=C/Nc1ccc2[nH]c(=O)[nH]c2c1 system_name="G protein-coupled receptor kinase 6 (Homo sapiens)" endpoint=inhibition endpoint_value=8.17%
molecule=Cc1ccc2c(-c3ccnc(Nc4ccc5c(c4)OCCO5)n3)c(-c3ccc(C(F)(F)F)cc3)nn2n1 system_name="G protein-coupled receptor kinase 6 (Homo sapiens)" endpoint=inhibition endpoint_value=0.55%
molecule=COc1cccc(-n2ncc3c(N/N=C/c4ccc(S(C)(=O)=O)cc4)ncnc32)c1 system_name="G protein-coupled receptor kinase 6 (Homo sapiens)" endpoint=inhibition endpoint_value=1.17%
molecule=NC(=O)c1sc(-n2cnc3ccccc32)cc1OCc1ccccc1Br system_name="G protein-coupled receptor kinase 6 (Homo sapiens)" endpoint=inhibition endpoint_value=1.41%
molecule=O=C(Nc1ccc(Oc2ccc3[nH]c(NC(=O)c4ccco4)nc3c2)cc1)Nc1cc(C(F)(F)F)ccc1F system_name="G protein-coupled receptor kinase 6 (Homo sapiens)" endpoint=inhibition endpoint_value=0.72%
molecule=CCn1c(-c2nonc2N)nc2c(C#CC(C)(C)O)nc(OCCNC)cc21 system_name="G protein-coupled receptor kinase 6 (Homo sapiens)" endpoint=inhibition endpoint_value=4.94%
molecule=CN(C)c1cc2c(Nc3ccc4c(cnn4Cc4ccccc4)c3)ncnc2cn1 system_name="G protein-coupled receptor kinase 6 (Homo sapiens)" endpoint=inhibition endpoint_value=3.25%
molecule="CCCN1CCCC(c2ccc(Nc3nc(Nc4cc(F)ccc4C(N)=O)c4cc[nH]c4n3)c(OC)c2)C1 (centres undefined)" system_name="G protein-coupled receptor kinase 6 (Homo sapiens)" endpoint=inhibition endpoint_value=5.66%
molecule=O=S(=O)(CCOCc1ccc(-c2ccc3ncnc(Nc4ccc(OCc5cccc(F)c5)c(Cl)c4)c3c2)o1)c1ccccc1 system_name="G protein-coupled receptor kinase 6 (Homo sapiens)" endpoint=inhibition endpoint_value=0.84%
